Tested on: SK-MEL-28
Assay: Anticancer activity against human SK-MEL-28 cells assessed as growth inhibition after 72 hrs by MTT assay
Assay type: functional, cell-based
Details: SK-MEL-28, 72 h
Please use T for IC50 under 20 µM and F for everything else, ties included.

IN: Would you kindly verify if IC50 of C/C1=C\CC[C@@]2(C)O[C@@H]2[C@H]2OC(=O)[C@@H](CN(C)CCN(C)C)[C@@H]2C[C@H]1O is strictly less than 20 µM?
OUT: T

IN: Would you kindly verify if IC50 of COc1ccc(N2CCN(C[C@@H]3C(=O)O[C@H]4[C@H]3C[C@@H](O)/C(C)=C/CC[C@@]3(C)O[C@H]43)CC2)cc1 is strictly less than 20 µM?
OUT: F

IN: Would you kindly verify if IC50 of C[C@]12O[C@@H]1CC[C@@]1(C)O[C@@H]1[C@H]1OC(=O)[C@@H](CN3CCCCC3)[C@@H]1C[C@H]2O is strictly less than 20 µM?
OUT: F

IN: Would you kindly verify if IC50 of C=C1C(=O)O[C@H]2[C@H]1C[C@@H](O)/C(C)=C/CC[C@@]1(C)O[C@@H]21 is strictly less than 20 µM?
OUT: T

IN: Would you kindly verify if IC50 of C/C1=C\CC[C@@]2(C)O[C@@H]2[C@H]2OC(=O)[C@@H](CN3CCN(c4ccccc4F)CC3)[C@@H]2C[C@H]1O is strictly less than 20 µM?
OUT: F

IN: Would you kindly verify if IC50 of C/C1=C\CC[C@@]2(C)O[C@@H]2[C@H]2OC(=O)[C@@H](CN3CCN(C)CC3)[C@@H]2C[C@@H]1O is strictly less than 20 µM?
OUT: F

IN: Would you kindly verify if IC50 of C/C1=C\CC[C@@]2(C)O[C@@H]2[C@H]2OC(=O)[C@@H](CN3CCN(c4ccccc4)CC3)[C@@H]2C[C@H]1O is strictly less than 20 µM?
OUT: T

IN: Would you kindly verify if IC50 of C[C@]12O[C@@H]1CC[C@@]1(C)O[C@@H]1[C@H]1OC(=O)[C@@H](CN3CCOCC3)[C@@H]1C[C@H]2O is strictly less than 20 µM?
OUT: F

IN: Would you kindly verify if IC50 of C/C1=C\CC[C@@]2(C)O[C@@H]2[C@H]2OC(=O)[C@@H](CN3CCCC3)[C@@H]2C[C@H]1O is strictly less than 20 µM?
OUT: T

IN: Would you kindly verify if IC50 of C/C1=C\CC[C@@]2(C)O[C@@H]2[C@H]2OC(=O)[C@@H](CN3CCCCC3)[C@@H]2C[C@@H]1O is strictly less than 20 µM?
OUT: T

IN: Would you kindly verify if IC50 of C[C@]12O[C@@H]1CC[C@@]1(C)O[C@@H]1[C@H]1OC(=O)[C@@H](CN3CCN(c4ccccc4F)CC3)[C@@H]1C[C@H]2O is strictly less than 20 µM?
OUT: T

IN: Would you kindly verify if IC50 of C[C@]12O[C@@H]1CC[C@@]1(C)O[C@@H]1[C@H]1OC(=O)[C@@H](CN3CCN(c4ccccc4)CC3)[C@@H]1C[C@H]2O is strictly less than 20 µM?
OUT: F

IN: Would you kindly verify if IC50 of C/C1=C\CC[C@@]2(C)O[C@@H]2[C@H]2OC(=O)[C@@H](CN3CCCC3)[C@@H]2C[C@@H]1O is strictly less than 20 µM?
OUT: F

IN: Would you kindly verify if IC50 of C[C@]12O[C@@H]1CC[C@@]1(C)O[C@@H]1[C@H]1OC(=O)[C@@H](CN3CCN(c4ccc(Cl)cc4)CC3)[C@@H]1C[C@H]2O is strictly less than 20 µM?
OUT: F

Values from ChEMBL document CHEMBL3352288
